Biological target: Human CD137 ECD (human)
Sequence (chain, as listed by the source limits assumed): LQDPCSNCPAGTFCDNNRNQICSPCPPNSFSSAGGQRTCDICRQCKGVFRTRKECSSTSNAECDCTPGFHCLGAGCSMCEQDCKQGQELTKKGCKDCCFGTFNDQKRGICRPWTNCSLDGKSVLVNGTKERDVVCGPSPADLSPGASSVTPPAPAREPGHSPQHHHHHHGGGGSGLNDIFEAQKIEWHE
Test: single mutant vs template dBBDu183H
parameter measured: fold change of affinity (fold)
The figure you give is taken to be in fold; do not add the unit.

H183/L072 VH N53S (antibody, name in Kabat numbering, V domains shown) VH: QVQLVESGGGLVQPGRSLRLSCAASGFTFSNAWMHWVRQAPGKGLEWVAQIKDKGSAYAAYYAPSVKGRFTISRDDSKNSIYLQMNSLKTEDTAVYYCHYVHYASASTVLPAFGVDAWGQGTTVTVSS VL: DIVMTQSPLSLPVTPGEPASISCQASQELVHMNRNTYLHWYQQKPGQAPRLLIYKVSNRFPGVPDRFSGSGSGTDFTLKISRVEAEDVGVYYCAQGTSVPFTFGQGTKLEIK ... 0

Task: Tell me the measured fold change of affinity of H183/L072 VH N53I (antibody, name in Kabat numbering, V domains shown) VH: QVQLVESGGGLVQPGRSLRLSCAASGFTFSNAWMHWVRQAPGKGLEWVAQIKDKGIAYAAYYAPSVKGRFTISRDDSKNSIYLQMNSLKTEDTAVYYCHYVHYASASTVLPAFGVDAWGQGTTVTVSS VL: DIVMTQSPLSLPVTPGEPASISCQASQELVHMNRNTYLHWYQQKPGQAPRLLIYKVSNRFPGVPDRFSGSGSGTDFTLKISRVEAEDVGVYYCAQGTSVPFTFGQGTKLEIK , please.
Result: 0
